Experiment: Pharmacokinetics of released PEGylated protease inhibitor following P.O. administration of prodrugs in rats
Format: in vivo, male Sprague-Dawley rats
Details: mPEG5-atazanavir in plasma after PO administration of mPEG5-ATV or of the listed prodrug, rats (n = 4-5)
measured.metric: Cmax Mean (ng/mL)
Write down the numeric answer in ng/mL and omit the unit.

Please review the following examples before continuing.
{"compound": "COCCOCCOCCOCCOCCOC(=O)NC(C(=O)NC(Cc1ccccc1)C(CN(Cc1ccc(-c2ccccn2)cc1)NC(=O)C(NC(=O)OC)C(C)(C)C)OCOCCOC)C(C)(C)C (centres unmarked) [mPEG5-ATV-Methyl ethyl methyl ether]", "measured.metric": "Cmax Mean", "reported": 3.74}
{"compound": "CCOC(CC)OC(CN(Cc1ccc(-c2ccccn2)cc1)NC(=O)C(NC(=O)OC)C(C)(C)C)C(Cc1ccccc1)NC(=O)C(NC(=O)OCCOCCOCCOCCOCCOC)C(C)(C)C (mixture of isomers) [ATV-1-Ethoxy propoxy-mPEG5, atazanavir-1-ethoxypropoxy-mPEG5]", "measured.metric": "Cmax Mean", "reported": 55.3}
{"compound": "COCCOCCOCCOCCOCCOC(=O)N[C@H](C(=O)N[C@@H](Cc1ccccc1)[C@H](CN(Cc1ccc(-c2ccccn2)cc1)NC(=O)[C@@H](NC(=O)OC)C(C)(C)C)OP(=O)(O)O)C(C)(C)C [mPEG5-ATV-phosphate, mPEG5-atazanavir phosphate]", "measured.metric": "Cmax Mean", "reported": 1.52}
{"compound": "COCCOCCOCCOCCOCCOC(=O)N[C@H](C(=O)N[C@@H](Cc1ccccc1)[C@H](CN(Cc1ccc(-c2ccccn2)cc1)NC(=O)[C@@H](NC(=O)OC)C(C)(C)C)OC(=O)[C@H](Cc1ccccc1)NC(=O)[C@@H](N)CC(C)C)C(C)(C)C.Cl [Leu-Phe-mPEG5-Atazanavir HCl, Leu-Phe-mPEG5-Atazanavir Hydrochloride]", "measured.metric": "Cmax Mean", "reported": 25.6}

Query: Item COCCOCCOCCOCCOCCOC(=O)NC(C(=O)NC(Cc1ccccc1)C(CN(Cc1ccc(-c2ccccn2)cc1)NC(=O)C(NC(=O)OC)C(C)(C)C)OC(=O)CNC(=O)C(N)Cc1ccccc1)C(C)(C)C.Cl (stereo not drawn) [Phe-Gly-mPEG5-Atazanavir HCl, Phe-Gly-mPEG5-Atazanavir Hydrochloride] has what recorded Cmax Mean?
Result: 3.10

Query: Another compound to check: CCCCC(=O)O[C@@H](CN(Cc1ccc(-c2ccccn2)cc1)NC(=O)[C@@H](NC(=O)OC)C(C)(C)C)[C@H](Cc1ccccc1)NC(=O)[C@@H](NC(=O)OCCOCCOCCOCCOCCOC)C(C)(C)C [C4H9CO-PEG5-ATV, C4H9CO-mPEG5-atazanavir]
Result: 9.46

Query: Thanks! And COCCOCCOCCOCCOCCOC(=O)NC(C(=O)NC(Cc1ccccc1)C(CN(Cc1ccc(-c2ccccn2)cc1)NC(=O)C(NC(=O)OC)C(C)(C)C)OC(=O)COCCOC(=O)C(N)Cc1ccccc1)C(C)(C)C.Cl (centres unmarked) [mPEG5-Atazanavir-CME-phenylalanine HCl] ?
Result: 2.84

Query: Please give the result for CCC(=O)OC(CN(Cc1ccc(-c2ccccn2)cc1)NC(=O)C(NC(=O)OC)C(C)(C)C)C(Cc1ccccc1)NC(=O)C(NC(=O)OCCOCCOCCOCCOCCOC)C(C)(C)C (centres unmarked) [C2H5CO-mPEG5-ATV, mPEG5-Atazanavir Propionate] too.
Result: 6.90

----------
Assay: Pharmacokinetics of released PEGylated protease inhibitor following P.O. administration of prodrugs in rats
Format: in vivo, male Sprague-Dawley rats
Parameters: concentration or dose not given beside the values
Settings: mPEG5-atazanavir in plasma after PO administration of mPEG5-ATV or of the listed prodrug, rats (n = 4-5)
measured.metric: AUCall Mean

Query: Which AUCall Mean value belongs to COCCOCCOCCOCCOCCOC(=O)NC(C(=O)NC(Cc1ccccc1)C(CN(Cc1ccc(-c2ccccn2)cc1)NC(=O)C(NC(=O)OC)C(C)(C)C)OCOC)C(C)(C)C (stereo not shown) [mPEG5-Atazanavir-methyl methyl ether, mPEG5-Atazanavir Methyl Methyl Ether] ?
Result: 137 ng·h/mL

----------
Assay: Pharmacokinetics of released PEGylated protease inhibitor following P.O. administration of prodrugs in rats
Format: in vivo, male Sprague-Dawley rats
Set-up: concentration or dose not given beside the values
Details: mPEG3-atazanavir in plasma after PO administration of mPEG3-ATV or of the listed prodrug, rats (n = 4-5)
measured.metric: AUCall Mean (ng·h/mL)
// units = ng·h/mL; emit number, no label

{"molecule": "COCCOCCOCCOC(=O)N[C@H](C(=O)N[C@@H](Cc1ccccc1)[C@H](CN(Cc1ccc(-c2ccccn2)cc1)NC(=O)[C@@H](NC(=O)OC)C(C)(C)C)OCOC)C(C)(C)C [mPEG3-Atazanavir-methyl methyl ether, mPEG3-Atazanavir Methyl Methyl Ether]", "unit.name": "ng·h/mL", "AUCall Mean": 110}
{"molecule": "COCCOCCOCCOC(=O)N[C@H](C(=O)N[C@@H](Cc1ccccc1)[C@H](CN(Cc1ccc(-c2ccccn2)cc1)NC(=O)[C@@H](NC(=O)OC)C(C)(C)C)OC(=O)[C@H](Cc1ccccc1)NC(=O)[C@@H](N)CC(C)C)C(C)(C)C.Cl [Leu-Phe-mPEG3-Atazanavir, Leu-Phe-mPEG3-Atazanavir Hydrochloride]", "unit.name": "ng·h/mL", "AUCall Mean": 448}

Now for a further molecule.
Query: Field request: AUCall Mean | item: COCCOCCOCCOC(=O)NC(C(=O)NC(Cc1ccccc1)C(CN(Cc1ccc(-c2ccccn2)cc1)NC(=O)C(NC(=O)OC)C(C)(C)C)OC(=O)CNC(=O)C(N)CC(C)C)C(C)(C)C.Cl (stereo not drawn) [Leu-Gly-mPEG3-Atazanavir, Leu-Gly-mPEG3-Atazanavir Hydrochloride]
Result: 44.9

----------
Experiment: Pharmacokinetics of released PEGylated protease inhibitor following P.O. administration of prodrugs in rats
Format: in vivo, male Sprague-Dawley rats
Design: concentration or dose not given beside the values
Settings: mPEG6-atazanavir in plasma after PO administration of mPEG6-ATV or of the listed prodrug, rats (n = 4-5)
Rule: Yes for AUCall Mean not less than 100 ng·h/mL, No for anything less.

A selection of reference data follows.
{"molecule": "COCCOCCOCCOCCOCCOCCOC(=O)NC(C(=O)NC(Cc1ccccc1)C(CN(Cc1ccc(-c2ccccn2)cc1)NC(=O)C(NC(=O)OC)C(C)(C)C)OC(=O)C(N)C(C)C)C(C)(C)C.Cl [mPEG6-ATV-L-valine, mPEG6-Atazanavir-L-Valine HCl]", "assigned.class": "No"}
{"molecule": "COCCOCCOCCOCCOCCOCCOC(=O)N[C@H](C(=O)N[C@@H](Cc1ccccc1)[C@H](CN(Cc1ccc(-c2ccccn2)cc1)NC(=O)[C@@H](NC(=O)OC)C(C)(C)C)OC(=O)[C@H](Cc1ccccc1)NC(=O)[C@@H](N)Cc1ccccc1)C(C)(C)C.Cl [Phe-Phe-mPEG6-ATV, Phe-Phe-mPEG6-Atazanavir Hydrochloride]", "assigned.class": "Yes"}

Query: Form field: AUCall Mean at least 100 ng·h/mL? Entry: COCCOCCOCCOCCOCCOCCOC(=O)NC(C(=O)NC(Cc1ccccc1)C(CN(Cc1ccc(-c2ccccn2)cc1)NC(=O)C(NC(=O)OC)C(C)(C)C)OC(C)=O)C(C)(C)C (centres unmarked)
Result: Yes

Query: Cool, now COCCOCCOCCOCCOCCOCCOC(=O)NC(C(=O)NC(Cc1ccccc1)C(CN(Cc1ccc(-c2ccccn2)cc1)NC(=O)C(NC(=O)OC)C(C)(C)C)OC(=O)COCCOC(=O)C(N)Cc1ccccc1)C(C)(C)C.Cl (centres unmarked) [mPEG6-Atazanavir-CME-phenylalanine HCl]
Result: Yes

Query: Now the molecule COCCOCCOCCOCCOCCOCCOC(=O)NC(C(=O)NC(Cc1ccccc1)C(CN(Cc1ccc(-c2ccccn2)cc1)NC(=O)C(NC(=O)OC)C(C)(C)C)OC(=O)CNC(=O)C(N)C(C)C)C(C)(C)C.Cl (stereo not drawn) [Val-Gly-mPEG6-ATV, Val-GIy-mPEG6-Atazanavir Hydrochloride]
Result: Yes

Query: Query CCCCCC(=O)O[C@@H](CN(Cc1ccc(-c2ccccn2)cc1)NC(=O)[C@@H](NC(=O)OC)C(C)(C)C)[C@H](Cc1ccccc1)NC(=O)[C@@H](NC(=O)OCCOCCOCCOCCOCCOCCOC)C(C)(C)C [C5H11CO-mPEG6-ATV, C5H11CO-mPEG6-atazanavir] next
Result: No

----------
Items are presented alongside their recorded AUCall.
Assay: Pharmacokinetics of PEGylated protease inhibitor prodrugs in rats
Type: in vivo, male Sprague-Dawley rats
Set-up: concentration or dose not given beside the values
Details: prodrug in plasma, mean ± SD
Numeric only. Scale: ng·h/mL

Recorded results for 2 compounds are shown here.
{"compound": "COCCOCCOCCOC(=O)N[C@H](C(=O)N[C@@H](Cc1ccccc1)[C@H](CN(Cc1ccc(-c2ccccn2)cc1)NC(=O)[C@@H](NC(=O)OC)C(C)(C)C)OCOC)C(C)(C)C [mPEG3-Atazanavir-methyl methyl ether, mPEG3-Atazanavir Methyl Methyl Ether]", "AUCall / ng·h/mL": 7740}
{"compound": "CCOCO[C@@H](CN(Cc1ccc(-c2ccccn2)cc1)NC(=O)[C@@H](NC(=O)OC)C(C)(C)C)[C@H](Cc1ccccc1)NC(=O)[C@@H](NC(=O)OCCOCCOCCOC)C(C)(C)C [mPEG3-Atazanavir-methyl ethyl ether, mPEG3-Atazanavir Methyl Ethyl Ether]", "AUCall / ng·h/mL": 6590}

Attention now turns to another entry.
Query: Which AUCall is reported for this compound? COCCOCCOCCOCCOCCOC(=O)N[C@H](C(=O)N[C@@H](Cc1ccccc1)[C@H](CN(Cc1ccc(-c2ccccn2)cc1)NC(=O)[C@@H](NC(=O)OC)C(C)(C)C)OC(=O)[C@H](Cc1ccccc1)NC(=O)[C@@H](N)CC(C)C)C(C)(C)C.Cl [Leu-Phe-mPEG5-Atazanavir HCl, Leu-Phe-mPEG5-Atazanavir Hydrochloride]
Result: 53.8
